Target: succinate dehydrogenase (Sus scrofa, UniProt A5GZW8+D0VWV4+Q007T0)
Construct: isolated from porcine hearts; from tissue; host or cells: porcine heart
Sequence (Q0QF01 43-664 partner): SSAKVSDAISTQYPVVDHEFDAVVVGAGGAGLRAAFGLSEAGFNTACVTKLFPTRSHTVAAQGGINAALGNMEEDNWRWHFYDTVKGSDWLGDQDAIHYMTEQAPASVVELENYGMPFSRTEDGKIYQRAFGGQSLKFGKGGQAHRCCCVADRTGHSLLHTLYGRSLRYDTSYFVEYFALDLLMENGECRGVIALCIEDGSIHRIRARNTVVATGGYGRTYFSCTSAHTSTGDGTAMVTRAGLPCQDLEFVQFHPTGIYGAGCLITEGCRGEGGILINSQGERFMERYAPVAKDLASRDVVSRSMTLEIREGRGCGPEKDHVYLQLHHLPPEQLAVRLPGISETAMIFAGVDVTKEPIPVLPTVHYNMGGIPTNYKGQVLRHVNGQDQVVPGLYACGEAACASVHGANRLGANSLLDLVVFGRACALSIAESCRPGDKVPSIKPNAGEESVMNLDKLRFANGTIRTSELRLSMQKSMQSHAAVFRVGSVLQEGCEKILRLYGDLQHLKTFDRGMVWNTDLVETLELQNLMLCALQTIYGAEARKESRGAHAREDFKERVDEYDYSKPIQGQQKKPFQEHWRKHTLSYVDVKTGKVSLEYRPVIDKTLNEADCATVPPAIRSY
Sequence (Q007T0 29-280): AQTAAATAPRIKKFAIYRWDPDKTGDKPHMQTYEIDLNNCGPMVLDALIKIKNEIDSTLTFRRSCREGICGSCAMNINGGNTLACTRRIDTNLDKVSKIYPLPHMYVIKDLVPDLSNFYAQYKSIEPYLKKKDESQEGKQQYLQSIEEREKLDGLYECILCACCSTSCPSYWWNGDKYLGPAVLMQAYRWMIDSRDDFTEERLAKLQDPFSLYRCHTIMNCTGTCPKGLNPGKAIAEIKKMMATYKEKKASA
Sequence (D0VWV4 30-169): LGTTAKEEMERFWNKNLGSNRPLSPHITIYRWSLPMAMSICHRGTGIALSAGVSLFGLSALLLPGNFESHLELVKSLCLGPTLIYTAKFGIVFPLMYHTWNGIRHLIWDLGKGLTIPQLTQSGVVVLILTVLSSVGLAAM
Sequence (A5GZW8 57-159 limits assumed): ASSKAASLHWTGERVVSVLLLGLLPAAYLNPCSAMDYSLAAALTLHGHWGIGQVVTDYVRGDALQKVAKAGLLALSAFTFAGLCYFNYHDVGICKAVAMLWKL
Assay: Enzyme activity assay, succinate dehydrogenase (DCIP reduction)
Type: biochemical, porcine
Details: read-out: Inhibitors (10 μM, SQR)
Procedure: The inhibitory activities of control agents and target compounds on succinate dehydrogenase are determined. The enzyme used in this test example is succinate dehydrogenase, which is isolated from porcine hearts. The test method comprises the following steps: The total volume of the system is 1.8 ml, and the system contained 100 mM Na2HPO4—NaH2PO4 buffer (pH=7.4), 0.3 mM EDTA, 20 mM sodium succinate, 53 μM DCIP (2,6-dichloroindophenol sodium), and 2 nM succinate dehydrogenase. […]

compound	inhibition at 10 µM
Cc1ccc(C(CN(C(=O)c2c(C(F)F)nn(C)c2F)C2CC2)=C(Cl)Cl)cc1C	> 90%
C=C(CN(C(=O)c1c(C(F)F)nn(C)c1F)C1CC1)c1cc(C(C)(C)C)ccc1C	> 90%
C=C(c1ccc(Cl)cc1F)C(C)N(C(=O)c1c(C(F)F)nn(C)c1F)C1CC1 (centres unmarked)	> 90%
Cn1nc(C(F)F)c(C(=O)N(CC(=C(Cl)Cl)c2cc(Br)ccc2Br)C2CC2)c1F	> 90%
C=C(c1cccc(C)c1)C(C)N(C(=O)c1c(C(F)F)nn(C)c1F)C1CC1 (centres unmarked)	> 90%
C=C(c1ccc(Cl)c(Cl)c1)C(C)N(C(=O)c1c(C(F)F)nn(C)c1F)C1CC1 (centres unmarked)	> 90%
C=C(CN(C(=O)c1c(C(F)F)nn(C)c1F)C1CC1)c1cccc(Br)c1Br	> 90%
CC(C(=C(Cl)Cl)c1cccc(S(C)(=O)=O)c1)N(C(=O)c1c(C(F)F)nn(C)c1F)C1CC1 (centres unmarked)	> 90%
C=C(c1ccc(Cl)cc1)C(C)N(C(=O)c1c(C(F)F)nn(C)c1F)C1CC1 (centres unmarked)	> 90%
Cn1nc(C(F)F)c(C(=O)N(CC(=C(Cl)Cl)c2cccc(C(F)(F)F)c2Cl)C2CC2)c1F	> 90%
C=C(c1cc(C)ccc1C(C)(C)C)C(C)N(C(=O)c1c(C(F)F)nn(C)c1F)C1CC1 (centres unmarked)	> 90%
CCS(=O)(=O)c1cccc(C(=C(Cl)Cl)C(C)N(C(=O)c2c(C(F)F)nn(C)c2F)C2CC2)c1 (centres unmarked)	> 90%
C=C(c1cccc(S(C)(=O)=O)c1)C(C)N(C(=O)c1c(C(F)F)nn(C)c1F)C1CC1 (centres unmarked)	> 90%
Cn1nc(C(F)F)c(C(=O)N(CC(=C(Cl)Cl)c2c(Br)cccc2Br)C2CC2)c1F	> 90%
C=C(c1cccc(Cl)c1)C(C)N(C(=O)c1c(C(F)F)nn(C)c1F)C1CC1 (centres unmarked)	> 90%
CC(C(=C(Cl)Cl)c1c(Cl)cccc1Cl)N(C(=O)c1c(C(F)F)nn(C)c1F)C1CC1 (centres unmarked)	> 90%
Cn1nc(C(F)F)c(C(=O)N(CC(=C(Cl)Cl)c2cc(F)ccc2F)C2CC2)c1F	> 90%
C=C(c1cc(C)ccc1C(C)C)C(C)N(C(=O)c1c(C(F)F)nn(C)c1F)C1CC1 (centres unmarked)	> 90%
C=C(CN(C(=O)c1c(C(F)F)nn(C)c1F)C1CC1)c1cc(Cl)cc(Cl)c1	> 90%
C=C(c1ccc(Br)cc1)C(C)N(C(=O)c1c(C(F)F)nn(C)c1F)C1CC1 (centres unmarked)	> 90%
C=C(CN(C(=O)c1c(C(F)F)nn(C)c1F)C1CC1)c1ccc(F)cc1Cl	> 90%
Cc1cc(C)c(C(=C(Cl)Cl)C(C)N(C(=O)c2c(C(F)F)nn(C)c2F)C2CC2)c(C)c1 (centres unmarked)	> 90%
C=C(c1ccc(Br)cc1Br)C(C)N(C(=O)c1c(C(F)F)nn(C)c1F)C1CC1 (centres unmarked)	> 90%
Cn1nc(C(F)F)c(C(=O)N(CC(=C(Cl)Cl)c2c(F)cccc2F)C2CC2)c1F	> 90%
C=C(CN(C(=O)c1c(C(F)F)nn(C)c1F)C1CC1)c1cc(C)ccc1C(C)C	> 90%
Cn1nc(C(F)F)c(C(=O)N(CC(=C(Cl)Cl)c2ccc(F)c(F)c2)C2CC2)c1F	> 90%
CC(C(=C(Cl)Cl)c1ccc(F)cc1)N(C(=O)c1c(C(F)F)nn(C)c1F)C1CC1 (centres unmarked)	> 90%
Cn1nc(C(F)F)c(C(=O)N(CC(=C(Cl)Cl)c2ccccc2)C2CC2)c1F	> 90%
C=C(c1cccc(OC)c1)C(C)N(C(=O)c1c(C(F)F)nn(C)c1F)C1CC1 (centres unmarked)	> 90%
C=C(CN(C(=O)c1c(C(F)F)nn(C)c1F)C1CC1)c1cc(C(C)C)ccc1C	> 90%
C=C(CN(C(=O)c1c(C(F)F)nn(C)c1F)C1CC1)c1c(Cl)cccc1Cl	> 90%
CC(C(=C(Cl)Cl)c1ccccc1Cl)N(C(=O)c1c(C(F)F)nn(C)c1F)C1CC1 (centres unmarked)	> 90%
